Test system: K24384-001-R-PDC complex spheroids, viability
Assay: Anticancer human tumor K24384-001-R-PDC patient-derived pancreatic adenocarcinoma cell line growth inhibition [GQUAD]
Conditions: second compound 10 µM; first compound 0.0999 µM; stronger effect = lower value

{"columns": ["molecule", "viability, T/C (%)"],
 "data": [
  ["CC[C@@]1(O)C(=O)OCc2c1cc1n(c2=O)Cc2cc3c(CN(C)C)c(O)ccc3nc2-1 + CN(C)c1ccc(Nc2c3ccc(NC(=O)CCN4CCCC4)cc3nc3cc(NC(=O)CCN4CCCC4)ccc23)cc1", 57.4],
  ["Cn1ncnc1[C@H]1c2n[nH]c(=O)c3cc(F)cc(c23)N[C@@H]1c1ccc(F)cc1 + Cc1[nH]c2ccc(F)cc2c1-c1nc2c3cccnc3c3ncccc3c2[nH]1", 71.2],
  ["CCc1c2c(nc3ccc(O)cc13)-c1cc3c(c(=O)n1C2)COC(=O)[C@]3(O)CC + Cc1cnc(CNC(=O)c2c(=O)c3ccc(N4CCCN(C)CC4)nc3n3c2sc2ccccc23)cn1", 0.25]
]}

----------
System: K24384-001-R-PDC complex spheroids, viability
Assay: Anticancer human tumor K24384-001-R-PDC cell line growth inhibition [GQUAD];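 further: spheroids exposed to compounds for seven days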
Conditions: second compound 3.16 µM; first compound 10 µM; stronger effect = lower value
viability, T/C overview

{"columns": ["compound", "viability, T/C [%]"],
 "data": [
  ["C#Cc1c(F)ccc2cc(O)cc(-c3ncc4c(N5CC6CCC(C5)N6)nc(OCC56CCCN5CC(F)C6)nc4c3F)c12 (stereo not given) + CN(C)c1ccc(Nc2c3ccc(NC(=O)CCN4CCCC4)cc3nc3cc(NC(=O)CCN4CCCC4)ccc23)cc1", 14.4],
  ["C=CCn1c(=O)c2cnc(Nc3ccc(N4CCN(C)CC4)cc3)nc2n1-c1cccc(C(C)(C)O)n1 + CN(C)c1ccc(Nc2c3ccc(NC(=O)CCN4CCCC4)cc3nc3cc(NC(=O)CCN4CCCC4)ccc23)cc1", 13.6],
  ["Cc1cccc(N(C)C(=O)C2C(O)CCN2c2nc(C)cc(C(F)(F)F)c2C#N)c1 (stereo not given) + Cc1cnc(CNC(=O)c2c(=O)c3ccc(N4CCCN(C)CC4)nc3n3c2sc2ccccc23)cn1", 41.5],
  ["Nc1ccn(C2OC(CO)C(O)C2(F)F)c(=O)n1 (stereo not given) + Cc1[nH]c2ccc(F)cc2c1-c1nc2c3cccnc3c3ncccc3c2[nH]1", 19.7],
  ["C=CC(=O)N1CCN(c2nc(=O)n(-c3c(C)ccnc3C(C)C)c3nc(-c4c(O)cccc4F)c(F)cc23)C(C)C1 (stereo not given) + CN(C)c1ccc(Nc2c3ccc(NC(=O)CCN4CCCC4)cc3nc3cc(NC(=O)CCN4CCCC4)ccc23)cc1", 79]
]}

----------
Test system: K24384-001-R-PDC complex spheroids, viability
Assay: Anticancer human tumor K24384-001-R-PDC cell line growth inhibition [GQUAD]; active = viability on the fitted dose curve at most 10% of control; inactive = the rest;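 further: spheroids exposed to compounds for seven days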
Settings: second compound 0.1 µM; first compound 10 µM
Classes used: active, inactive

{"columns": ["compound", "target-of-assay", "class-assignment"],
 "data": [
  ["C=CC(=O)N1CCN(c2nc(=O)n(-c3c(C)ccnc3C(C)C)c3nc(-c4c(O)cccc4F)c(F)cc23)C(C)C1 (stereo not given) + Cc1cnc(CNC(=O)c2c(=O)c3ccc(N4CCCN(C)CC4)nc3n3c2sc2ccccc23)cn1", "K24384-001-R-PDC complex spheroids, viability", "inactive"],
  ["C=CCn1c(=O)c2cnc(Nc3ccc(N4CCN(C)CC4)cc3)nc2n1-c1cccc(C(C)(C)O)n1 + CN(C)c1ccc(Nc2c3ccc(NC(=O)CCN4CCCC4)cc3nc3cc(NC(=O)CCN4CCCC4)ccc23)cc1", "K24384-001-R-PDC complex spheroids, viability", "inactive"],
  ["Nc1ccn(C2OC(CO)C(O)C2(F)F)c(=O)n1 (stereo not given) + Cc1[nH]c2ccc(F)cc2c1-c1nc2c3cccnc3c3ncccc3c2[nH]1", "K24384-001-R-PDC complex spheroids, viability", "inactive"],
  ["CC1COCCN1c1cc(C2(O)CC3CCC(C2)O3)c2cnn(-c3ccn[nH]3)c2n1 (stereo not given) + Cc1[nH]c2ccc(F)cc2c1-c1nc2c3cccnc3c3ncccc3c2[nH]1", "K24384-001-R-PDC complex spheroids, viability", "inactive"],
  ["COc1cccc2c1C(=O)c1c(O)c3c(c(O)c1C2=O)CC(O)(C(=O)CO)CC3OC1CC(N)C(O)C(C)O1 (stereo not given) + CN(C)c1ccc(Nc2c3ccc(NC(=O)CCN4CCCC4)cc3nc3cc(NC(=O)CCN4CCCC4)ccc23)cc1", "K24384-001-R-PDC complex spheroids, viability", "active"],
  ["CC(=O)O[C@H]1C(=O)[C@@]2(C)[C@H]([C@H](OC(=O)c3ccccc3)[C@]3(O)C[C@H](OC(=O)[C@H](O)[C@@H](NC(=O)c4ccccc4)c4ccccc4)C(C)=C1C3(C)C)[C@]1(OC(C)=O)CO[C@@H]1C[C@@H]2O + Cc1cnc(CNC(=O)c2c(=O)c3ccc(N4CCCN(C)CC4)nc3n3c2sc2ccccc23)cn1", "K24384-001-R-PDC complex spheroids, viability", "inactive"],
  ["O=C(NO)c1cnc(N2CCN(S(=O)(=O)c3ccc4ccccc4c3)CC2)nc1 + Cc1cnc(CNC(=O)c2c(=O)c3ccc(N4CCCN(C)CC4)nc3n3c2sc2ccccc23)cn1", "K24384-001-R-PDC complex spheroids, viability", "active"],
  ["C=CC(=O)N1CCN(c2nc(=O)n(-c3c(C)ccnc3C(C)C)c3nc(-c4c(O)cccc4F)c(F)cc23)C(C)C1 (stereo not given) + CN(C)c1ccc(Nc2c3ccc(NC(=O)CCN4CCCC4)cc3nc3cc(NC(=O)CCN4CCCC4)ccc23)cc1", "K24384-001-R-PDC complex spheroids, viability", "inactive"],
  ["COc1cc(C2c3cc4c(cc3C(OC3OC5COC(C)OC5C(O)C3O)C3COC(=O)C23)OCO4)cc(OC)c1O (stereo not given) + Cc1[nH]c2ccc(F)cc2c1-c1nc2c3cccnc3c3ncccc3c2[nH]1", "K24384-001-R-PDC complex spheroids, viability", "inactive"],
  ["COc1ccc([C@@H](O)c2cc(-c3ncnc4cc(N5CCOCC5)ccc34)c(F)cc2Cl)nn1 + Cc1cnc(CNC(=O)c2c(=O)c3ccc(N4CCCN(C)CC4)nc3n3c2sc2ccccc23)cn1", "K24384-001-R-PDC complex spheroids, viability", "inactive"],
  ["O=C(c1cc(Cc2n[nH]c(=O)c3ccccc23)ccc1F)N1CCN(C(=O)C2CC2)CC1 + Cc1cnc(CNC(=O)c2c(=O)c3ccc(N4CCCN(C)CC4)nc3n3c2sc2ccccc23)cn1", "K24384-001-R-PDC complex spheroids, viability", "inactive"],
  ["C#Cc1c(F)ccc2cc(O)cc(-c3ncc4c(N5CC6CCC(C5)N6)nc(OCC56CCCN5CC(F)C6)nc4c3F)c12 (stereo not given) + CN(C)c1ccc(Nc2c3ccc(NC(=O)CCN4CCCC4)cc3nc3cc(NC(=O)CCN4CCCC4)ccc23)cc1", "K24384-001-R-PDC complex spheroids, viability", "inactive"],
  ["O=c1[nH]cc(F)c(=O)[nH]1 + CN(C)c1ccc(Nc2c3ccc(NC(=O)CCN4CCCC4)cc3nc3cc(NC(=O)CCN4CCCC4)ccc23)cc1", "K24384-001-R-PDC complex spheroids, viability", "inactive"],
  ["CC1COCCN1c1cc(C2(S(C)(=N)=O)CC2)nc(-c2ccnc3[nH]ccc23)n1 (stereo not given) + CN(C)c1ccc(Nc2c3ccc(NC(=O)CCN4CCCC4)cc3nc3cc(NC(=O)CCN4CCCC4)ccc23)cc1", "K24384-001-R-PDC complex spheroids, viability", "inactive"],
  ["CC(C)n1c(=O)n(C)c2cnc3cc(F)c(-c4ccc(OCCCN5CCCCC5)nc4)cc3c21 + Cc1cnc(CNC(=O)c2c(=O)c3ccc(N4CCCN(C)CC4)nc3n3c2sc2ccccc23)cn1", "K24384-001-R-PDC complex spheroids, viability", "inactive"],
  ["O=C(c1cc(Cc2n[nH]c(=O)c3ccccc23)ccc1F)N1CCN(C(=O)C2CC2)CC1 + Cc1[nH]c2ccc(F)cc2c1-c1nc2c3cccnc3c3ncccc3c2[nH]1", "K24384-001-R-PDC complex spheroids, viability", "inactive"],
  ["C=CC(=O)N1CCN(c2nc(=O)n(-c3c(C)ccnc3C(C)C)c3nc(-c4c(O)cccc4F)c(F)cc23)C(C)C1 (stereo not given) + Cc1[nH]c2ccc(F)cc2c1-c1nc2c3cccnc3c3ncccc3c2[nH]1", "K24384-001-R-PDC complex spheroids, viability", "inactive"],
  ["CC(C)n1c(=O)n(C)c2cnc3cc(F)c(-c4ccc(OCCCN5CCCCC5)nc4)cc3c21 + Cc1[nH]c2ccc(F)cc2c1-c1nc2c3cccnc3c3ncccc3c2[nH]1", "K24384-001-R-PDC complex spheroids, viability", "inactive"],
  ["O=C(NO)c1cnc(N2CCN(S(=O)(=O)c3ccc4ccccc4c3)CC2)nc1 + CN(C)c1ccc(Nc2c3ccc(NC(=O)CCN4CCCC4)cc3nc3cc(NC(=O)CCN4CCCC4)ccc23)cc1", "K24384-001-R-PDC complex spheroids, viability", "active"],
  ["CCCS(=O)(=O)Nc1ccc(F)c(C(=O)c2c[nH]c3ncc(-c4ccc(Cl)cc4)cc23)c1F + CN(C)c1ccc(Nc2c3ccc(NC(=O)CCN4CCCC4)cc3nc3cc(NC(=O)CCN4CCCC4)ccc23)cc1", "K24384-001-R-PDC complex spheroids, viability", "inactive"]
]}
